Source of measurements: ChEMBL document CHEMBL3352143

# Test system: RAW264.7
# protocol summary: Anti-inflammatory activity in mouse RAW264.7 cells assessed as inhibition of IFN-gamma plus LPS-induced NO production
# Type: functional, cell-based
Kindly supply the reported IC50 values for the records listed here.
Numbers only, in µM.

Take a look at these entries with their results.
C=C(C)C(CC=C(C)C)C[C@@]12C[C@@H](C[C@H](O)C(C)(C)OC)C(C)(C)[C@@](CC=C(C)C)(C(=O)C(C(=O)c3ccc(O)c(O)c3)=C1O)C2=O (some centres undefined) | 24.9
CC(C)=CC[C@H]1C[C@@]23C[C@H](CC=C(C)C)C(C)(C)[C@@](CC=C(C)C)(C(=O)C(OC(=O)c4ccc(O)c(O)c4)=C2OC1(C)C)C3=O | 39.1
CC1(C)Oc2cc3oc4ccc(O)cc4c(=O)c3c(O)c2CC1O (centres undefined) | 15.9

Please look up its IC50: CC(C)=CC[C@H]1C[C@@]23C[C@@H](CC=C(C)C)C(C)(C)[C@@](CC=C(C)C)(C(=O)C(C(=O)c4ccc(O)c(O)c4)=C2OC1(C)C)C3=O [CAMBOGIN] 19.2
